This section presents compounds with their documented growth at 10 µM values.
- System: MOLT-4
- assay.remarks: Growth inhibition of human MOLT4 cells assessed as cell growth at 10 uM incubated for 48 hrs by sulforhodamine B assay relative to control
- Format: functional
- setup.conditions: MOLT-4, 48 h, read-out: Activity
quantity.measured: growth at 10 µM

INSERT INTO results (item_smiles, observed_measurement) VALUES
  ('COc1cc(Cl)cc(-c2nn(-c3cccc(NC(=O)c4ccc(Cl)c(Cl)c4)c3)cc2-c2ccncc2)c1', '54.9%'),
  ('COc1cc(Cl)cc(-c2nn(-c3cccc(NC(=O)Nc4ccc(Cl)c(Cl)c4)c3)cc2-c2ccncc2)c1', '-16.1%'),
  ('COc1cc(Cl)cc(-c2nn(-c3cccc(NC(=O)Nc4cc(C(F)(F)F)cc(C(F)(F)F)c4)c3)cc2-c2ccncc2)c1', '-24.6%'),
  ('COc1cc(Cl)cc(-c2nn(-c3cccc(NC(=O)c4cc(C(F)(F)F)cc(C(F)(F)F)c4)c3)cc2-c2ccncc2)c1', '55.3%');

----------
This section presents molecules with their documented GI50 values.
- Tested on: UACC-62
- assay.remarks: Growth inhibition of human UACC62 cells incubated for 48 hrs by sulforhodamine B assay
- Type: functional, cell-based
- setup.conditions: UACC-62, 48 h, read-out: pGI50 (converted)
quantity.measured: GI50

INSERT INTO measurements (item_smiles, observed_measurement) VALUES
  ('O=C(Nc1cccc(-n2cc(-c3ccncc3)c(-c3cc(O)cc(Cl)c3)n2)c1)c1ccc(N2CCOCC2)c(C(F)(F)F)c1', '1740 nM'),
  ('O=C(Nc1cccc(-n2cc(-c3ccncc3)c(-c3cc(O)cc(Cl)c3)n2)c1)Nc1ccc(Cl)c(Cl)c1', '1700 nM'),
  ('COc1cc(Cl)cc(-c2nn(-c3cccc(NC(=O)Nc4cc(C(F)(F)F)cc(C(F)(F)F)c4)c3)cc2-c2ccncc2)c1', '355 nM'),
  ('COc1cc(Cl)cc(-c2nn(-c3cccc(NC(=O)Nc4ccc(Cl)c(Cl)c4)c3)cc2-c2ccncc2)c1', '2400 nM');

----------
- System: SK-MEL-2
- assay.remarks: Growth inhibition of human SK-MEL-2 cells incubated for 48 hrs by sulforhodamine B assay
- Format: functional, cell-based
- setup.conditions: SK-MEL-2, 48 h, read-out: GI50
This section presents compounds with their documented GI50 values.
quantity.measured: GI50 (µM)

INSERT INTO assay_data (item_smiles, observed_measurement) VALUES
  ('COc1cc(Cl)cc(-c2nn(-c3cccc(NC(=O)Nc4ccc(Cl)c(Cl)c4)c3)cc2-c2ccncc2)c1', 1.54),
  ('COc1cc(Cl)cc(-c2nn(-c3cccc(NC(=O)Nc4ccc(Cl)c(C(F)(F)F)c4)c3)cc2-c2ccncc2)c1', 1.79),
  ('COc1cc(Cl)cc(-c2nn(-c3cccc(NC(=O)Nc4cccc(C(F)(F)F)c4)c3)cc2-c2ccncc2)c1', 1.29),
  ('COc1cc(Cl)cc(-c2nn(-c3cccc(NC(=O)Nc4cc(C(F)(F)F)cc(C(F)(F)F)c4)c3)cc2-c2ccncc2)c1', 0.658);

----------
This section presents compounds with their documented TGI values.
- System: SNB-19
- assay.remarks: Growth inhibition of human SNB19 cells incubated for 48 hrs by sulforhodamine B assay
- Format: functional, cell-based
- setup.conditions: SNB-19, 48 h, read-out: pTGI (converted)
quantity.measured: TGI

INSERT INTO assay_data (item_smiles, observed_measurement) VALUES
  ('COc1cc(Cl)cc(-c2nn(-c3cccc(NC(=O)c4cccc(C(F)(F)F)c4)c3)cc2-c2ccncc2)c1', '> 100 µM'),
  ('O=C(Nc1cccc(-n2cc(-c3ccncc3)c(-c3cc(O)cc(Cl)c3)n2)c1)c1cc(C(F)(F)F)cc(C(F)(F)F)c1', '> 100 µM'),
  ('COc1cc(Cl)cc(-c2nn(-c3cccc(NC(=O)Nc4cc(C(F)(F)F)cc(C(F)(F)F)c4)c3)cc2-c2ccncc2)c1', '11.2 µM'),
  ('COc1cc(Cl)cc(-c2nn(-c3cccc(NC(=O)c4ccc(N5CCOCC5)c(C(F)(F)F)c4)c3)cc2-c2ccncc2)c1', '> 100 µM');
